target or system: Gal(b1-3)[Fuc(a1-4)]GlcNAc(b1-3)Gal(b1-4)[Fuc(a1-3)]GlcNAc
experiment notes: glycan array binding signal (z-score within array); higher = stronger binding
condition info: glycan notation: IUPAC condensed, linker removed
Many of the other results were omitted from the sample, so the strongest signals are more common in it than they were.
metric: glycan array binding signal (z-score)
API doc: respond with a numeric literal and nothing else, no unit.

Take a look at these entries with their results.
| binder | metric | recorded result |
| --- | --- | --- |
| RBMC1 (Vibrio cholerae) (protein) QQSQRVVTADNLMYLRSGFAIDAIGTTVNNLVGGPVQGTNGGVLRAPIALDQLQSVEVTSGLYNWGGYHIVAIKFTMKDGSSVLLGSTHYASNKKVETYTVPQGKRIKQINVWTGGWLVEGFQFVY | glycan array binding signal (z-score) | -0.3 |
| LecB LY19 (Pseudomonas aeruginosa) (protein) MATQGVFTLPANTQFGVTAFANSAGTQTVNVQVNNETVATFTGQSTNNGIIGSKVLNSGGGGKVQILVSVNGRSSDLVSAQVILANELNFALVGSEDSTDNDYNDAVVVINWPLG | glycan array binding signal (z-score) | 4.05 |

Enquiry: Dear colleague, I am looking for the recorded glycan array binding signal (z-score) of the following binder: CBM32-5 (Clostridium perfringens) (protein) MGSSHHHHHHSSGLVPRGSHMASALPQGNMKATATSEHPDVGNEGLAKFAIDGKENTIWHTKYNPVEELPQSITLELGGSYEINKFTYLPRSGAKNGNITKYELHVSEDGNNFRKISEGNWDDSGSLKTLKFNSTKATHVKLVALEGVGGFASAAELNVFA
Return: -0.543

Enquiry: Dear colleague, I am looking for the recorded glycan array binding signal (z-score) of the following binder: GNAT (Pseudomonas aeruginosa), Q9HV14 (protein) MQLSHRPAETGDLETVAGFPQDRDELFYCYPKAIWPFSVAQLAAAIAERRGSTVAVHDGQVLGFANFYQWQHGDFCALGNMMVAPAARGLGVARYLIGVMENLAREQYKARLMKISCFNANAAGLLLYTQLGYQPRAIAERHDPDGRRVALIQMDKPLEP
Return: -0.315
